test system: SGK1 (human), O00141 [S422D]; assay: radiometric filter-binding kinase assay; details: compound 0.01 µM
Sequence (O00141 whole entry S422D, looked up): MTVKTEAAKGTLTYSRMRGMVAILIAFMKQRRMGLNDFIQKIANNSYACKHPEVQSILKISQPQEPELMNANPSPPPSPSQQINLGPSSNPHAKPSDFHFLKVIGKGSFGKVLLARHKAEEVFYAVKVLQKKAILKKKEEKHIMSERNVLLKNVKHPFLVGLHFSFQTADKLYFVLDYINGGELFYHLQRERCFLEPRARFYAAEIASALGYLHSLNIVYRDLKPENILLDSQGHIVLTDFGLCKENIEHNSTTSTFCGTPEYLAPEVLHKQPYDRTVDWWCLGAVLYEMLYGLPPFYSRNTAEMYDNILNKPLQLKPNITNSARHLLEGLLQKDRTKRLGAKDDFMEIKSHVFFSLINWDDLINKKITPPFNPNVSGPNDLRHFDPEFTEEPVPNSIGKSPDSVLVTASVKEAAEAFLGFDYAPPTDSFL
residual activity overview
ENDPOINT_LABEL: residual activity (%)

| COMPOUND | RECORDED_MEASUREMENT |
| --- | --- |
| CNc1nc(-c2ccc3c(N)n[nH]c3c2)cc(N2C[C@@H](C(=O)NC3CCCCC3)CC[C@H]2C)n1 | 96 |
| CNC(=O)C1[C@H]2O[C@@](C)([C@@H]1N)n1c3ccccc3c3c4c(c5c6ccccc6n2c5c31)C(=O)NC4 (stereo partly specified) | 79 |
| COc1cc(O)c2c(c1)[C@H]1OC1C[C@H](O)[C@H](O)C(=O)/C=C\C[C@H](C)OC2=O (stereo partly specified) | 93 |
| O=C(Nc1nc2cc(C(F)(F)F)cc(NC3CC3)n2n1)c1cccnc1 | 103 |
| COc1ccc(N(C(=O)Nc2c(C)cccc2C)c2cc(Nc3ccc(N4CCN(C)CC4)cc3)ncn2)c(OC)c1 | 94 |
| C/C(=C1/C(=O)Nc2ccc(NC(N)=O)cc21)c1ccc[nH]1 | 86 |

* * *

residual activity overview
target: CSK (human) (UniProt P41240); assay: radiometric filter-binding kinase assay; conditions: compound 1.0 µM
Sequence (P41240 whole entry, looked up): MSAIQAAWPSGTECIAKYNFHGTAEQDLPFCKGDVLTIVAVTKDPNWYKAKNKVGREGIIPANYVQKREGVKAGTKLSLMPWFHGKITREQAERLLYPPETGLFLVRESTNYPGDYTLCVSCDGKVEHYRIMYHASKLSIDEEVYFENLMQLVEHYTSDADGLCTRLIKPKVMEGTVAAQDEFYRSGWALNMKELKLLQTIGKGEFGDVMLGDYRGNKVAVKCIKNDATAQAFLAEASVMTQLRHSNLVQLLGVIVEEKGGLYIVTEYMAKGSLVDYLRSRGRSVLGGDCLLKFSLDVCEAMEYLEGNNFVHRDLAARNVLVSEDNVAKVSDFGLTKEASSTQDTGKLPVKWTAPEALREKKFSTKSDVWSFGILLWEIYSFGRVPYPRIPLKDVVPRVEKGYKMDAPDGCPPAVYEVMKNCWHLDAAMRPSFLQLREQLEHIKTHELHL
ENDPOINT_LABEL: residual activity (%)

| MOLECULE | ENDPOINT_LABEL | RECORDED_MEASUREMENT |
| --- | --- | --- |
| CC(C)(C#N)c1ccc(N2C(=O)OCc3cnc4ccc(-c5cnc6ccccc6c5)cc4c32)cc1 | residual activity | 75 |
| Nc1cccc2c1CN(C1CCC(=O)NC1=O)C2=O (stereo unspecified) | residual activity | 87 |
| O=C(O)c1ccc(-c2c[nH]c3ncc(-c4ccccc4)cc23)cc1C1CCCC1 | residual activity | 96 |
| COc1cc(C(=O)N2CCOCC2)c(F)cc1Nc1ncc(C(F)(F)F)c(NC2CC2)n1 | residual activity | 102 |
| O=C(NCCCNc1nc(Nc2cccc(CN3CCOCC3)c2)ncc1C1CC1)C1CCC1 | residual activity | 112 |
| Cc1cc(NC(=O)c2cccc(NC(=O)/C=C/CN(C)C)c2)ccc1Nc1nccc(-c2cccnc2)n1 | residual activity | 93 |
| c1ccc2c(-c3cnn4cc(-c5ccc(N6CCNCC6)cc5)cnc34)ccnc2c1 | residual activity | 103 |
| Cc1ccc(Sc2cnc(Nc3cccc(Br)n3)s2)cc1C(=O)N1CCN(C(=O)CN)CC1 | residual activity | 88 |
| NC(=O)c1cc2c(-c3cccc(-c4ccccc4)c3)cnc(N)c2s1 | residual activity | 82 |
| Cc1ccc(=O)n(-c2ccccc2)c1 | residual activity | 98 |
| NC(=O)c1ccc(-c2ccc(Oc3cncc4sc(-c5nn[nH]n5)cc34)cc2)cc1 | residual activity | 86 |
| CN1C(=O)[C@@H](Cc2c[nH]c3ccccc23)NC1=S | residual activity | 98 |
| Cc1cccc(Nc2nn(C)c3ncnc(N)c23)c1 | residual activity | 97 |
| Cn1c(=O)c2c(ncn2C)n(C)c1=O | residual activity | 103 |
| COc1ccc2c(c1)c1c3c(c4c5ccccc5n(C)c4c1n2CC(O)CN(C)C)C(=O)NC3=O (stereo unspecified) | residual activity | 78 |
| COc1ccc(N(C(=O)Nc2c(C)cccc2C)c2cc(Nc3ccc(N4CCN(C)CC4)cc3)ncn2)c(OC)c1 | residual activity | 38 |
| O=C(Nc1cccnc1)c1cc(-c2ccnc(F)c2)ccc1OCc1ccccc1 | residual activity | 104 |
| FC(F)(F)c1ccc(-c2ccc(Oc3cncc4sc(-c5nn[nH]n5)cc34)cc2)cc1 | residual activity | 100 |
| CNc1nc(-c2ccc3c(N)n[nH]c3c2)cc(N2C[C@@H](C(=O)NC3CCCCC3)CC[C@H]2C)n1 | residual activity | 100 |
| Cc1cccc(-c2nn(C(=S)Nc3ccccc3)cc2-c2ccnc3ccccc23)n1 | residual activity | 93 |
| O=C(N[C@@H](COc1ccc2[nH]c(=O)[nH]c2c1)c1ccccc1)c1cccn(Cc2ccc(F)c(F)c2)c1=O | residual activity | 98 |
| Cn1nc(Nc2ccc(F)cc2)c2c(N)ncnc21 | residual activity | 88 |
| COc1cc2ncn(-c3cc(OCc4ccccc4S(C)(=O)=O)c(C#N)s3)c2cc1OC | residual activity | 81 |
| CCn1c(-c2nonc2N)nc2cncc(CNC3CCNCC3)c21 | residual activity | 95 |
| Cc1nc(-c2ccc(OCC(C)C)c(C#N)c2)sc1C(=O)O | residual activity | 148 |
| CN(C)C/C=C/C(=O)Nc1cccc(C(=O)Nc2ccc(Nc3nccc(-c4cccnc4)n3)cc2)c1 | residual activity | 103 |
| O=C(Nc1nc2cc(C(F)(F)F)cc(NC3CC3)n2n1)c1cccnc1 | residual activity | 89 |
| O=C(NOCC(O)CO)c1ccc(F)c(F)c1Nc1ccc(I)cc1Cl (stereo unspecified) | residual activity | 89 |
| CCNc1nc(Nc2cc(F)c(C(=O)N3CCOCC3)cc2OC)ncc1C(F)(F)F | residual activity | 101 |
| CCc1cncnc1N1CCN(Cc2nc3cc(C(F)(F)F)ccc3[nH]2)CC1 | residual activity | 93 |
| NC(=O)Nc1ccc2c(c1)/C(=C/c1cc(-c3cccnc3)c[nH]1)C(=O)N2 | residual activity | 69 |
| O=C(O)c1cc(N=Nc2ccc(S(=O)(=O)Nc3ccccn3)cc2)ccc1O | residual activity | 119 |
| C[C@H]1CCCC(=O)CCC/C=C/c2cc(O)cc(O)c2C(=O)O1 | residual activity | 80 |
| Cc1cc(SCc2sc(-c3ccc(C(F)(F)F)cc3)nc2C)ccc1OCC(=O)O | residual activity | 98 |
| C=CC(=O)N1CCC[C@@H](n2nc(-c3ccc(Oc4ccccc4)cc3)c3c(N)ncnc32)C1 | residual activity | 15 |
| NCC(=O)Nc1ccc(-n2nc(C(F)(F)F)cc2-c2ccc3c(ccc4ccccc43)c2)cc1 | residual activity | 97 |
| NC1(c2ccc(-c3nc4ccn5c(=O)[nH]nc5c4cc3-c3ccccc3)cc2)CCC1 | residual activity | 91 |
| O=C(NOC[C@H](O)CO)c1ccc(F)c(F)c1Nc1ccc(I)cc1Cl | residual activity | 93 |
| COc1cc(O)c2c(c1)/C=C/C[C@H](O)[C@H](O)C(=O)/C=C\C[C@H](C)OC2=O | residual activity | 56 |
| CCCCCc1ccc(/C=C/[C@H](O)[C@@H](CO)NC)cc1 | residual activity | 101 |
| NC(=O)c1cc(-c2ccnc(NC3CCCCC3)c2)nc(N2CCNCC2)c1 | residual activity | 116 |
